For each record, write down the corresponding CTG-3D luminescence at 96 h.
System: HCI-027 (organoid from a triple-negative breast cancer xenograft)
test.details: CTG-3D luminescence at 96 h relative to day-0 seeding control (ratio to day 0); higher = more growth / less cytotoxicity; PDxO 3D drug screen (set 2), 96 h, CTG-3D normalised to day-0 seeding control.
stated.conditions: 0.1 µM; days in culture: 145
One number for each entry.

>  <compound>
CC(=O)c1c(C)c2cnc(Nc3ccc(N4CCNCC4)cn3)nc2n(C2CCCC2)c1=O [palbociclib]

>  <recorded.value>
1.26

$$$$

Batch: CTG-3D luminescence at 96 h for all items listed.
1. Cc1c(CN2CCN(C(=O)[C@H](C)O)CC2)sc2c(N3CCOCC3)nc(-c3cnc(N)nc3)nc12 [apitolisib]
2. CCOc1ccn(-c2ccc(F)cc2)c(=O)c1C(=O)Nc1ccc(Oc2ccnc(N)c2Cl)c(F)c1 [ASLAN002]

[1.14, 2.27]
